test system: HEK293; assay: Cytotoxicity against HEK293 cells assessed as inhibition of cell proliferation measured after 48 hrs by MTT assay; assay type: cell-based; conditions: Homo sapiens, HEK293, 48 h

| structure smiles string | IC50 |
| --- | --- |
| CN1C(=O)CN(C2CCCC2)c2nc(Nc3ccc(N4CCCCC4)cn3)ncc21 | > 30 µM |
| CCN1C(=O)CN(C2CCCC2)c2nc(Nc3ccc(N4CCCCC4)cc3)ncc21 | > 30 µM |
| CCN1C(=O)CN(C2CCCC2)c2nc(Nc3ccc(N4CCN(C)CC4)cc3)ncc21 | > 30 µM |
| O=C1CN(Cc2ccccc2)c2nc(NCCc3ccccc3)ncc2N1 | > 30 µM |
| CN1CCN(c2ccc(Nc3ncc4c(n3)N(C3CCCC3)CC(=O)N4C)cc2)CC1 | 12.4 µM |
| CN1CCN(c2ccc(Nc3ncc4c(n3)N(C3CCCC3)CC(=O)N4)cc2)CC1 | > 30 µM |
| CN1C(=O)CN(C2CCCC2)c2nc(Nc3ccc(N4CCCCC4)cc3)ncc21 | 25.3 µM |
| O=C1CN(C2CCCC2)c2nc(Nc3ccc(N4CCOCC4)cc3)ncc2N1 | > 30 µM |
| CCN1C(=O)CN(C2CCCC2)c2nc(Nc3ccc(N4CCN(C)CC4)cn3)ncc21 | > 30 µM |
| CCN1C(=O)CN(C2CCCC2)c2nc(Nc3ccc(N4CCCCC4)cn3)ncc21 | > 30 µM |
| O=C1CN(C2CCCC2)c2nc(Nc3ccc(N4CCCCC4)cc3)ncc2N1 | 25.1 µM |
| CCN1C(=O)CN(C2CCCC2)c2nc(Nc3ccc(N4CCC(C)CC4)cc3)ncc21 | > 30 µM |

====

system: MDA-MB-231; experiment: Antiproliferative activity against human MDA-MB-231 cells assessed as inhibition of cell proliferation measured after 48 hrs by MTT assay; type: functional, cell-based; conditions: MDA-MB-231, 48 h

| structure smiles string | value qualifier | IC50 (µM) |
| --- | --- | --- |
| CCN1C(=O)CN(C2CCCC2)c2nc(Nc3ccc(N4CCCCC4)cc3)ncc21 | > | 30 |
| CCN1C(=O)CN(C2CCCC2)c2nc(Nc3ccc(N4CCC(C)CC4)cn3)ncc21 | > | 30 |
| CCN1C(=O)CN(C2CCCC2)c2nc(Nc3ccc(N4CCC(C)CC4)cc3)ncc21 | > | 30 |
| CN1CCN(c2ccc(Nc3ncc4c(n3)N(C3CCCC3)CC(=O)N4)cc2)CC1 | = | 26.1 |
| CCN1C(=O)CN(C2CCCC2)c2nc(Nc3ccc(OC)cc3)ncc21 | > | 30 |
| O=C1CN(C2CCCC2)c2nc(Nc3ccc(N4CCCCC4)cn3)ncc2N1 | > | 30 |
| CCN1C(=O)CN(C2CCCC2)c2nc(Nc3ccc(N4CCCCC4)cn3)ncc21 | = | 28.2 |
| CC1CCN(c2ccc(Nc3ncc4c(n3)N(C3CCCC3)CC(=O)N4)cc2)CC1 | = | 22.7 |
| O=C1CN(C2CCCC2)c2nc(Nc3ccc(N4CCOCC4)cn3)ncc2N1 | > | 30 |
| CC1CCN(c2ccc(Nc3ncc4c(n3)N(C3CCCC3)CC(=O)N4C)nc2)CC1 | > | 30 |
| O=C1CN(C2CCCC2)c2nc(Nc3ccc(N4CCCCC4)cc3)ncc2N1 | = | 25 |
| CCN1C(=O)CN(C2CCCC2)c2nc(Nc3ccc(N4CCOCC4)cc3)ncc21 | > | 30 |
| CN1C(=O)CN(C2CCCC2)c2nc(Nc3ccc(N4CCOCC4)cn3)ncc21 | > | 30 |
| CN1C(=O)CN(C2CCCC2)c2nc(Nc3ccc(N4CCCCC4)cn3)ncc21 | = | 29.3 |
| CC1CCN(c2ccc(Nc3ncc4c(n3)N(C3CCCC3)CC(=O)N4)nc2)CC1 | > | 30 |
| COc1ccc(Nc2ncc3c(n2)N(C2CCCC2)CC(=O)N3C)cc1 | > | 30 |
| CC1CCN(c2ccc(Nc3ncc4c(n3)N(C3CCCC3)CC(=O)N4C)cc2)CC1 | > | 30 |
| O=C1CN(C2CCCC2)c2nc(Nc3ccc(N4CCNCC4)cn3)ncc2N1 | > | 30 |
| CC(=O)c1c(C)c2cnc(Nc3ccc(N4CCNCC4)cn3)nc2n(C2CCCC2)c1=O | = | 6.21 |
| CCN1C(=O)CN(C2CCCC2)c2nc(Nc3ccc(N4CCOCC4)cn3)ncc21 | > | 30 |
| CCN1C(=O)CN(C2CCCC2)c2nc(Nc3ccc(N4CCN(C)CC4)cc3)ncc21 | = | 26.2 |
| CN1CCN(c2ccc(Nc3ncc4c(n3)N(C3CCCC3)CC(=O)N4)nc2)CC1 | > | 30 |
| CN1CCN(c2ccc(Nc3ncc4c(n3)N(C3CCCC3)CC(=O)N4C)nc2)CC1 | = | 23.7 |
| CN1C(=O)CN(C2CCCC2)c2nc(Nc3ccc(N4CCCCC4)cc3)ncc21 | = | 21.2 |
| CCN1C(=O)CN(C2CCCC2)c2nc(Nc3ccc(N4CCN(C)CC4)cn3)ncc21 | = | 24.1 |
| COc1ccc(Nc2ncc3c(n2)N(C2CCCC2)CC(=O)N3)cc1 | > | 30 |
| O=C1CN(C2CCCC2)c2nc(Nc3ccc(N4CCOCC4)cc3)ncc2N1 | = | 25.1 |
| CN1C(=O)CN(C2CCCC2)c2nc(Nc3ccc(N4CCOCC4)cc3)ncc21 | > | 30 |
| CN1CCN(c2ccc(Nc3ncc4c(n3)N(C3CCCC3)CC(=O)N4C)cc2)CC1 | = | 10.3 |

Data credit: ChEMBL document CHEMBL4673291
